So I've got a bunch of compounds here, and I need their remaining activity at 10 µM values.
Molecular target: CDK2/cyclinA (Homo sapiens)
Construct: purchased Eurofins Pharma Discovery Services (KinaseProfiler; Cerep BioPrint panel)
Experiment: kinase selectivity panel
Format: biochemical
Details: read-out: percentage of control activity (POC), CDK2/cyclinA
# output: bare number, implied unit %

Field request: remaining activity at 10 µM | item: `Cc1ccc(C(=O)NCC2CC2)cc1-c1ccc2c(c1)NC(=O)C21CCCC1`
101

Now consider `CS(=O)(=O)N1CCN(c2ccc(Nc3ncc(C(N)=O)c(NC4CC4)n3)cc2)CC1` and answer again.
78

Now consider Cn1cc(-c2cccc(-c3nc(C(=O)NC4C5CC6CC4CC(O)(C6)C5)c(N)nc3N)c2)cn1 (centres unmarked) and answer again.
91

Now consider `CC(C)(C)N1CCC(c2cc(-c3ccc(F)cc3Cl)c3cc[n+]([O-])c(-c4c(Cl)cccc4Cl)c3n2)CC1` and answer again.
105

Now consider COc1c(NC(=O)c2ccc(C)c(-c3nnc4c(NCC(C)(C)C)nccn34)c2)cc(C(C)(C)C)cc1NS(C)(=O)=O [compound 7, reference compound] and answer again.
105

---

So I've got a bunch of compounds here, and I need their remaining activity at 10 µM values.
Molecular target: PI3K (p110a/p85a) (Homo sapiens)
Construct: purchased Eurofins Pharma Discovery Services (KinaseProfiler; Cerep BioPrint panel)
Sequence (P42336 whole entry): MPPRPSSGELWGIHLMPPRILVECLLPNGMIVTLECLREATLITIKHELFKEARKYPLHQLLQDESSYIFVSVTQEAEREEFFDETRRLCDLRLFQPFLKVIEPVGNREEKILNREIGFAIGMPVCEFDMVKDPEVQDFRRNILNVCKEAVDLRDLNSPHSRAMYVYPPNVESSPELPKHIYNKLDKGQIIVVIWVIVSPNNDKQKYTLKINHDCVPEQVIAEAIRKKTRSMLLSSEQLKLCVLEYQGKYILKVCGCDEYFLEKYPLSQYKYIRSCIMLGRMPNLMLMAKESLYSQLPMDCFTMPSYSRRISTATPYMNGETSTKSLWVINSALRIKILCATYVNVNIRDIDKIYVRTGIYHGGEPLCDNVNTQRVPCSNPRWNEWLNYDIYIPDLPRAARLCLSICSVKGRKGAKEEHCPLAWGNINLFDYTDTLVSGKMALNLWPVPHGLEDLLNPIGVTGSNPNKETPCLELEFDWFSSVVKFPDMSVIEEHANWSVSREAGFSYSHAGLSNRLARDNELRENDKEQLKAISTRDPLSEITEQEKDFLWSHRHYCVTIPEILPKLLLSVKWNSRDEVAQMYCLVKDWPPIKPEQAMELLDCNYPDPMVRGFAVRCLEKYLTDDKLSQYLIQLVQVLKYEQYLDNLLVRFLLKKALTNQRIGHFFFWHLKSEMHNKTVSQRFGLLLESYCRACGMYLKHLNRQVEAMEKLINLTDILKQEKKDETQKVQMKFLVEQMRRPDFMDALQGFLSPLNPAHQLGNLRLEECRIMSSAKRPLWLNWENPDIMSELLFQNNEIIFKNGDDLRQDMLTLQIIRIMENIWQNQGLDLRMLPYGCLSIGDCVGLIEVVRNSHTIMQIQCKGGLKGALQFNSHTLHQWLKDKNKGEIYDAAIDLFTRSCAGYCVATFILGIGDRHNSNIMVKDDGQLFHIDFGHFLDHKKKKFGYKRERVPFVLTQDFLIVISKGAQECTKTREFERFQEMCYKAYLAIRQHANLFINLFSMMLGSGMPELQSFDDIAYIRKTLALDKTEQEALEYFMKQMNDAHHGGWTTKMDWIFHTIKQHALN
Sequence (P27986 whole entry partner): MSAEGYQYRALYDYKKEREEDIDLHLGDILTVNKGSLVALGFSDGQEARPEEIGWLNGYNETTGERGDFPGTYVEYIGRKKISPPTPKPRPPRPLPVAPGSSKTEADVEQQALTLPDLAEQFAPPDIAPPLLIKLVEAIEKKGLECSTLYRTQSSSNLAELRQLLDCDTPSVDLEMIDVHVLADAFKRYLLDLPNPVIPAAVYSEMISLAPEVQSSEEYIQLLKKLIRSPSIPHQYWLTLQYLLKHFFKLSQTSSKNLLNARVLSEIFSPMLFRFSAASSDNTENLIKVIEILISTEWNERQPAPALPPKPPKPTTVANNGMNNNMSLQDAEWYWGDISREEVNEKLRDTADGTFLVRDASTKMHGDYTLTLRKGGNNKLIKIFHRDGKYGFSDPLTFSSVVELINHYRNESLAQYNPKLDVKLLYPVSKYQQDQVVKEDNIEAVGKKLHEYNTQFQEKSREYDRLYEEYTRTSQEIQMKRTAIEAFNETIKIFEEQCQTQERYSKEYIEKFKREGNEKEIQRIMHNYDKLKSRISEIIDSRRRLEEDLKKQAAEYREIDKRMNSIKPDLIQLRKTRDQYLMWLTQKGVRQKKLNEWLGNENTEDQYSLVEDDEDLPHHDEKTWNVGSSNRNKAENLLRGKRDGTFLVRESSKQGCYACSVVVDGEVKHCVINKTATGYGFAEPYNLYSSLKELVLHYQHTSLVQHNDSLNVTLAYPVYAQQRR
Experiment: kinase selectivity panel
Type: biochemical
Details: read-out: percentage of control activity (POC), PI3K (p110a/p85a)
# output: bare number, implied unit %

Lab note: need remaining activity at 10 µM with PI3K (p110a/p85a) (Homo sapiens) for entry CS(=O)(=O)N1CCN(c2ccc(Nc3ncc(C(N)=O)c(NC4CC4)n3)cc2)CC1 [compound 5] , please look it up.
96

Now consider Cc1ccc(C(=O)NCC2CC2)cc1-c1ccc2c(c1)NC(=O)C21CCCC1 [compound 3] and answer again.
94

Now consider Cn1cc(-c2cccc(-c3nc(C(=O)NC4C5CC6CC4CC(O)(C6)C5)c(N)nc3N)c2)cn1 (centres unmarked) [compound 4] and answer again.
60

Now consider CC(C)(C)N1CCC(c2cc(-c3ccc(F)cc3Cl)c3cc[n+]([O-])c(-c4c(Cl)cccc4Cl)c3n2)CC1 [compound 2] and answer again.
97

Now consider COc1c(NC(=O)c2ccc(C)c(-c3nnc4c(NCC(C)(C)C)nccn34)c2)cc(C(C)(C)C)cc1NS(C)(=O)=O [compound 7, reference compound] and answer again.
95

---

So I've got a bunch of compounds here, and I need their remaining activity at 10 µM values.
Biological target: TAK1 (Homo sapiens, UniProt O43318)
Construct: purchased Eurofins Pharma Discovery Services (KinaseProfiler; Cerep BioPrint panel)
Sequence (O43318 1-303 limits assumed): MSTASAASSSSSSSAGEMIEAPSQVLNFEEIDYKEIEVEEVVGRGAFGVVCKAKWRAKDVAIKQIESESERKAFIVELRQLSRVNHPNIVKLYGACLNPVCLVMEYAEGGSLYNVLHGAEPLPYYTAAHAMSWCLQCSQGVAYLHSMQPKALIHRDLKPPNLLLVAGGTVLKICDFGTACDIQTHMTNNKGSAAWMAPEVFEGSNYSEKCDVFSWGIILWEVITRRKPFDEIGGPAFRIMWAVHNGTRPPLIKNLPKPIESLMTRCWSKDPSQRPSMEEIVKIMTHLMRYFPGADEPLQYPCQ
Assay: kinase selectivity panel
Format: biochemical
Settings: read-out: percentage of control activity (POC), TAK1
Description: Kinase selectivity was evaluated at Eurofins Pharma Discovery Services using a selection of 125 representative kinases tested at a concentration of 10 μM in duplicate (S3 Table). IC50 values for selected activities were further characterized at 9 duplicate concentrations. DNA-PK activity was determined at the SelectScreen® Biochemical kinase Profiling Service of Thermo Fisher Scientific.
# output: bare number, implied unit %

Field request: remaining activity at 10 µM | item: COc1c(NC(=O)c2ccc(C)c(-c3nnc4c(NCC(C)(C)C)nccn34)c2)cc(C(C)(C)C)cc1NS(C)(=O)=O [compound 7, reference compound]
103

Now consider CS(=O)(=O)N1CCN(c2ccc(Nc3ncc(C(N)=O)c(NC4CC4)n3)cc2)CC1 [compound 5] and answer again.
1

Now consider CC(C)(C)N1CCC(c2cc(-c3ccc(F)cc3Cl)c3cc[n+]([O-])c(-c4c(Cl)cccc4Cl)c3n2)CC1 [compound 2] and answer again.
105

Now consider Cn1cc(-c2cccc(-c3nc(C(=O)NC4C5CC6CC4CC(O)(C6)C5)c(N)nc3N)c2)cn1 (centres unmarked) [compound 4] and answer again.
97

Now consider Cc1ccc(C(=O)NCC2CC2)cc1-c1ccc2c(c1)NC(=O)C21CCCC1 [compound 3] and answer again.
97

---

So I've got a bunch of molecules here, and I need their remaining activity at 10 µM values.
Target: Fyn (Homo sapiens, UniProt P06241)
Construct: purchased Eurofins Pharma Discovery Services (KinaseProfiler; Cerep BioPrint panel)
Sequence (P06241 whole entry): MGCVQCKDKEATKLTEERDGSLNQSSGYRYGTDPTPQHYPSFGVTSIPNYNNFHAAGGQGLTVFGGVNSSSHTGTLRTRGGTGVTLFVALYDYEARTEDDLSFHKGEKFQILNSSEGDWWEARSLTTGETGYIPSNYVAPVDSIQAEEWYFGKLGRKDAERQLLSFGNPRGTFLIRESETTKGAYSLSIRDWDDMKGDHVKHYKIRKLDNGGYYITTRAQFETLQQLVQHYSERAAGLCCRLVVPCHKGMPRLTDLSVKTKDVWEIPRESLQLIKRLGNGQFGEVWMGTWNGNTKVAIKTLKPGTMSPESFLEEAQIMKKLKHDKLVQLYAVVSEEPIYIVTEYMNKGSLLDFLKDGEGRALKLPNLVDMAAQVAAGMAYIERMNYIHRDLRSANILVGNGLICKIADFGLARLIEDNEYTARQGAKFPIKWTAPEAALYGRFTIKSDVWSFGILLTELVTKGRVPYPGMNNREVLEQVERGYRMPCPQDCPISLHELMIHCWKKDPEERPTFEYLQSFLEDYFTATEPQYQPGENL
Assay: kinase selectivity panel
Assay type: biochemical
Conditions: read-out: percentage of control activity (POC), Fyn
# output: bare number, implied unit %

Field request: remaining activity at 10 µM | item: `CS(=O)(=O)N1CCN(c2ccc(Nc3ncc(C(N)=O)c(NC4CC4)n3)cc2)CC1`
10

Now consider COc1c(NC(=O)c2ccc(C)c(-c3nnc4c(NCC(C)(C)C)nccn34)c2)cc(C(C)(C)C)cc1NS(C)(=O)=O [compound 7, reference compound] and answer again.
99

Now consider `Cc1ccc(C(=O)NCC2CC2)cc1-c1ccc2c(c1)NC(=O)C21CCCC1` and answer again.
97

Now consider `CC(C)(C)N1CCC(c2cc(-c3ccc(F)cc3Cl)c3cc[n+]([O-])c(-c4c(Cl)cccc4Cl)c3n2)CC1` and answer again.
100

Now consider Cn1cc(-c2cccc(-c3nc(C(=O)NC4C5CC6CC4CC(O)(C6)C5)c(N)nc3N)c2)cn1 (centres unmarked) and answer again.
81

---

So I've got a bunch of compounds here, and I need their remaining activity at 10 µM values.
Biological target: Flt3 (Homo sapiens, UniProt P36888)
Construct: purchased Eurofins Pharma Discovery Services (KinaseProfiler; Cerep BioPrint panel)
Sequence (P36888 27-993): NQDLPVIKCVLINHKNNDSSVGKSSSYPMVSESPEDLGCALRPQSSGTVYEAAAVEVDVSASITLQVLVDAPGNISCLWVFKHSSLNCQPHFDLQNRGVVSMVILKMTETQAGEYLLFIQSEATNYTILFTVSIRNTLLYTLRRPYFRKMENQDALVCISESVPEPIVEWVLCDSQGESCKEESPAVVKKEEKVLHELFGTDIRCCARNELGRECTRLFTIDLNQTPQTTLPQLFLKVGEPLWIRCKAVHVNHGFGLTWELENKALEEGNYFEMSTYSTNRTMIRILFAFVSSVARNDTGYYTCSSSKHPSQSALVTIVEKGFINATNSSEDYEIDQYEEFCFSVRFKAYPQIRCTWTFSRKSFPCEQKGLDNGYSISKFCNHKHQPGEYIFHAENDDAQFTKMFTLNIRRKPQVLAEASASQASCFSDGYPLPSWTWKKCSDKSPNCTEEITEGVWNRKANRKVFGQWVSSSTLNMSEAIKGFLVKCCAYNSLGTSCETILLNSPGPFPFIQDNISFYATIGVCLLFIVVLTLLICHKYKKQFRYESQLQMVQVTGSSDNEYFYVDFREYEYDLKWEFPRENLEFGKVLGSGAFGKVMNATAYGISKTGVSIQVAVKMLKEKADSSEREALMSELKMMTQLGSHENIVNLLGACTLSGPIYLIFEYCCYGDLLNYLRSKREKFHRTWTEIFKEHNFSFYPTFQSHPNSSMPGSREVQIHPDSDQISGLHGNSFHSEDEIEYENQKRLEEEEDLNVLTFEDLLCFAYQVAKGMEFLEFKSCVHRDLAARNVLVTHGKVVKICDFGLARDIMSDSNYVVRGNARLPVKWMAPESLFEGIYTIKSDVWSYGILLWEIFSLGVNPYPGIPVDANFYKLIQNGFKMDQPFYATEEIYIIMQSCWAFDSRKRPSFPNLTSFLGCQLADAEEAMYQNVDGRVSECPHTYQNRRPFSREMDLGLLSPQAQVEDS
Assay: kinase selectivity panel
Type: biochemical
Details: read-out: percentage of control activity (POC), Flt3
Show the value, then the unit it is measured in.

Lab note: need remaining activity at 10 µM with Flt3 (Homo sapiens, UniProt P36888) for entry Cn1cc(-c2cccc(-c3nc(C(=O)NC4C5CC6CC4CC(O)(C6)C5)c(N)nc3N)c2)cn1 (centres unmarked) , please look it up.
95%

Now consider `CS(=O)(=O)N1CCN(c2ccc(Nc3ncc(C(N)=O)c(NC4CC4)n3)cc2)CC1` and answer again.
1%

Now consider COc1c(NC(=O)c2ccc(C)c(-c3nnc4c(NCC(C)(C)C)nccn34)c2)cc(C(C)(C)C)cc1NS(C)(=O)=O [compound 7, reference compound] and answer again.
110%

Now consider `Cc1ccc(C(=O)NCC2CC2)cc1-c1ccc2c(c1)NC(=O)C21CCCC1` and answer again.
110%

Now consider `CC(C)(C)N1CCC(c2cc(-c3ccc(F)cc3Cl)c3cc[n+]([O-])c(-c4c(Cl)cccc4Cl)c3n2)CC1` and answer again.
104%

---

Target: Ret (Homo sapiens)
Construct: purchased Eurofins Pharma Discovery Services (KinaseProfiler; Cerep BioPrint panel)
Sequence (P07949 29-1114): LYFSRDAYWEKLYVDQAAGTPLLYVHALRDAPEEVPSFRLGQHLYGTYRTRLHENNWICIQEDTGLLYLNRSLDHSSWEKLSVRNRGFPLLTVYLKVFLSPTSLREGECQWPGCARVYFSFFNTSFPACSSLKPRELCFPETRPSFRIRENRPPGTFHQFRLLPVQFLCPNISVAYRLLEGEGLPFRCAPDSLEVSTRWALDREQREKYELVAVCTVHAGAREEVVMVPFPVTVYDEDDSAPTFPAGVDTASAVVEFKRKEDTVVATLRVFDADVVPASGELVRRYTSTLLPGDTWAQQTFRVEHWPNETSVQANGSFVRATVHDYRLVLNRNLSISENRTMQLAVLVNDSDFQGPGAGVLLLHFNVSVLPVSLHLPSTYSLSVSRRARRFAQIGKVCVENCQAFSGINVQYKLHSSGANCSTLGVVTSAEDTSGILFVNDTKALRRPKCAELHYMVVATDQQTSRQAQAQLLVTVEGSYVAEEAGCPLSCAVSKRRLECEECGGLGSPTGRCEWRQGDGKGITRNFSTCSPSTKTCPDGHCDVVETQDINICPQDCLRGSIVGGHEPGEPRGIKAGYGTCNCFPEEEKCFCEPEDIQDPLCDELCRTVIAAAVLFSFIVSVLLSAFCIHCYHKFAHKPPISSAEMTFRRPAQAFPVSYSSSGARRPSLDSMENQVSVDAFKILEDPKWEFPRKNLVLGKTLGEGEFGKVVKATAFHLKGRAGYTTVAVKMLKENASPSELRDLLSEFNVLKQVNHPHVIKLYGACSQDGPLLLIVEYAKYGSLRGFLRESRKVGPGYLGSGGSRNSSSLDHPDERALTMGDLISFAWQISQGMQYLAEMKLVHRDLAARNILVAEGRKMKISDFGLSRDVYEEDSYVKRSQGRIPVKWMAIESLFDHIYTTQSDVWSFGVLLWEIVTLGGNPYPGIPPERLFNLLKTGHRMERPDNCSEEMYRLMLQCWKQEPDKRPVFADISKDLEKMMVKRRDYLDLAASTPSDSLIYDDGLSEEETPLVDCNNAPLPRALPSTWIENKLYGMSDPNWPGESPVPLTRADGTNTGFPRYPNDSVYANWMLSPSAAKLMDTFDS
Assay: kinase selectivity panel
Type: biochemical
Details: read-out: percentage of control activity (POC), Ret
Protocol: Kinase selectivity was evaluated at Eurofins Pharma Discovery Services using a selection of 125 representative kinases tested at a concentration of 10 μM in duplicate (S3 Table). IC50 values for selected activities were further characterized at 9 duplicate concentrations. DNA-PK activity was determined at the SelectScreen® Biochemical kinase Profiling Service of Thermo Fisher Scientific.
So I've got a bunch of molecules here, and I need their remaining activity at 10 µM values.
# output: bare number, implied unit %

Field request: remaining activity at 10 µM | item: COc1c(NC(=O)c2ccc(C)c(-c3nnc4c(NCC(C)(C)C)nccn34)c2)cc(C(C)(C)C)cc1NS(C)(=O)=O [compound 7, reference compound]
71

Now consider Cn1cc(-c2cccc(-c3nc(C(=O)NC4C5CC6CC4CC(O)(C6)C5)c(N)nc3N)c2)cn1 (centres unmarked) [compound 4] and answer again.
63

Now consider Cc1ccc(C(=O)NCC2CC2)cc1-c1ccc2c(c1)NC(=O)C21CCCC1 [compound 3] and answer again.
89

Now consider CC(C)(C)N1CCC(c2cc(-c3ccc(F)cc3Cl)c3cc[n+]([O-])c(-c4c(Cl)cccc4Cl)c3n2)CC1 [compound 2] and answer again.
100

Now consider CS(=O)(=O)N1CCN(c2ccc(Nc3ncc(C(N)=O)c(NC4CC4)n3)cc2)CC1 [compound 5] and answer again.
-1
